Entry source: ChEMBL document CHEMBL1133637

- TESTED_ON: UniProt Q72874
- ASSAY: Concentration required for 95% inhibition of Protease
Kindly supply the reported IC95 values for the records listed here.
Give bare numbers, in nM.

Consider the reported IC95 for these molecules:
[[record]]
molecule = "Cc1nn(C)c2ncc(CN3CCN(C[C@@H](O)C[C@@H](Cc4ccccc4)C(=O)NC4c5ccccc5C[C@H]4O)[C@H](C(=O)NC(C)(C)C)C3)c(Cl)c12 (stereo partly drawn)"
value = 12.5

[[record]]
molecule = "CC(C)(C)NC(=O)[C@@H]1CN(C(=O)c2cnc3occc3c2)CCN1C[C@@H](O)C[C@@H](Cc1ccccc1)C(=O)NC1c2ccccc2C[C@H]1O (stereo partly drawn)"
value = 100


q: Which measured IC95 value corresponds to Cc1c(CN2CCN(CC(O)CC(Cc3ccccc3)C(=O)NC3c4ccccc4CC3O)C(C(=O)NC(C)(C)C)C2)oc2ccccc12 (stereo not drawn) ?
a: 25

* * *

- ASSAY: Maximal plasma concentration in dogs at 10mg/kg oral dose 0.05M citric acid
- CONDITION_SET: dog
QUANTITY_NAME: Cmax

Solved entries (count: 5):
[[record]]
molecule = "CC(C)(C)NC(=O)[C@@H]1CN(Cc2cnc3occc3c2Cl)CCN1C[C@@H](O)C[C@@H](Cc1ccccc1)C(=O)NC1c2ccccc2C[C@H]1O (stereo partly specified)"
quantity_name = "Cmax"
value = "3.94 µM"

[[record]]
molecule = "COc1ncccc1CN1CCN(C[C@@H](O)C[C@@H](Cc2ccccc2)C(=O)NC2c3ccccc3C[C@H]2O)[C@H](C(=O)NC(C)(C)C)C1 (stereo partly specified)"
quantity_name = "Cmax"
value = "0.515 µM"

[[record]]
molecule = "Cc1nn(C)c2ncc(CN3CCN(C[C@@H](O)C[C@@H](Cc4ccccc4)C(=O)NC4c5ccccc5C[C@H]4O)[C@H](C(=O)NC(C)(C)C)C3)cc12 (stereo partly specified)"
quantity_name = "Cmax"
value = "0.19 µM"

[[record]]
molecule = "CC(C)(C)NC(=O)[C@@H]1CN(Cc2cnc3occc3c2)CCN1C[C@@H](O)C[C@@H](Cc1ccccc1)C(=O)N[C@H]1c2ccccc2C[C@H]1O"
quantity_name = "Cmax"
value = "15 µM"

[[record]]
molecule = "CC(C)(C)NC(=O)[C@@H]1CN(Cc2cc3ccccc3o2)CCN1C[C@@H](O)C[C@@H](Cc1ccccc1)C(=O)N[C@H]1c2ccccc2C[C@H]1O"
quantity_name = "Cmax"
value = "28.3 µM"


// moving on: another record for Cmax
q: What does the data say about its Cmax? Entry: CC(C)(C)NC(=O)[C@@H]1CN(Cc2cnc3ccoc3c2)CCN1C[C@@H](O)C[C@@H](Cc1ccccc1)C(=O)NC1c2ccccc2C[C@H]1O (stereo partly specified)
a: 9.72 µM

* * *

- ASSAY: Partition coefficient (logP)
- CONDITION_SET: octanol/water
QUANTITY_NAME: logP
One number for each entry.

[[record]]
molecule = "CCOc1ccc(CN2CCN(C[C@@H](O)C[C@@H](Cc3ccccc3)C(=O)NC3c4ccccc4C[C@H]3O)[C@H](C(=O)NC(C)(C)C)C2)cn1 (some centres undefined)"
quantity_name = "logP"
value = 3.62


Moving on to the next molecule.
q: // query logP value for entry Cc1ccc(CN2CCN(C[C@@H](O)C[C@@H](Cc3ccccc3)C(=O)NC3c4ccccc4C[C@H]3O)[C@H](C(=O)NC(C)(C)C)C2)cn1 (some centres undefined)
a: 2.14
